Test system: IGROV1 ovarian
Test: NCI tumour cell line growth inhibition, 48 h
This section presents molecules with their documented TGI values.

CC1(C)CC(=O)C2=C(C1)OC1=C(C(=O)CC(C)(C)C1)C2CC(c1ccccc1)c1ccc(O)c(O)c1O (stereo not drawn)    > 10 µM
COc1cc(C2C(Cl)C(=O)N2NC(=O)c2ccccc2O)ccc1O (stereo not drawn)    > 100 µM
COC(=O)c1ccc2c(c1)nc(-c1cc3ccccc3[nH]c1=O)n2-c1cc(C(C)(C)C)[nH]n1    > 100 µM
COc1ccc(NC(=O)n2nc(N)c3ccccc32)cc1OC    84 µM
Cn1c2c(c3ccccc31)C1CCCCC1C1C(=O)NC(=O)C21 (stereo not drawn)    > 100 µM
Cc1ccc(-c2nc(SCC(=O)O)n[nH]2)cc1    > 100 µM
CN1CCCNc2c(c(=O)c2=O)NCCCN(C)CCCNc2c(c(=O)c2=O)NCCCN(C)CCCNc2c(c(=O)c2=O)NCCCN(C)CCCNc2c(c(=O)c2=O)NCCCN(C)CCCNc2c(c(=O)c2=O)NCCCN(C)CCCNc2c(c(=O)c2=O)NCCCN(C)CCCNc2c(c(=O)c2=O)NCCC1    23.8 µM
COC(=O)C1=C(C(=O)OC)C2(OC(C)=O)c3ccccc3-c3ccccc3C12 (stereo not drawn)    10.1 µM

Tell me measured TGI for CC(C)c1ccccc1NC(=O)C(=O)Cc1nc2ccccc2s1 please.
> 100 µM

Tell me measured TGI for CCOC(=O)c1sc2nc3sc(N=Nc4ccc(Cl)cc4)c(O)n3c(=S)c2c1C please.
> 100 µM

Tell me measured TGI for O=C1/C(=C\c2cccc(Oc3ccccc3)c2)S(=O)(=O)C(c2ccccc2)N1c1ccc(Cl)cc1 (stereo not drawn) please.
33.2 µM

Tell me measured TGI for CC(=O)c1ccc(NC(=O)CSc2nnc(-c3cc(-c4ccc(C)cc4)nc4ccccc34)o2)cc1 please.
> 100 µM

Tell me measured TGI for COc1cccc(NC(=S)Nn2c(C)nc3ccccc3c2=O)c1 please.
> 100 µM

Tell me measured TGI for COc1cc(/C=C/c2cc(/C=C/c3ccc(O)c(OC)c3)n(-c3c(C)cccc3C)c(=O)n2)ccc1O please.
6.87 µM

----------
System: KM20L2 colon
Experiment: NCI tumour cell line growth inhibition, 48 h
This section presents compounds with their documented TGI values.

COC(=O)C(CCCC1(c2ccccc2)OCCO1)C(C)=O (stereo not given)    > 100 µM

Tell me measured TGI for CCCN(CCCC(NC(C)=O)C(=O)NCc1ccccc1)C(=O)NC (stereo not given) please.
> 100 µM

Tell me measured TGI for CSC(C1c2ccccc2N(C)C2=NC(=O)N(C)C(=O)C21Cl)S(=O)(=O)c1ccc(C)cc1 (stereo not given) please.
> 100 µM

Tell me measured TGI for COc1ccc(/C(=N/NC(=O)NN)C(c2ccc(OC)cc2)C2(O)CNc3c(Cl)cc(Cl)cc32)cc1 (stereo not given) please.
> 100 µM

Tell me measured TGI for C[C@]12CCC[C@H](Cl)C1(O)C[C@H](C(=O)O)CC2 (stereo not given in full) please.
> 100 µM

Tell me measured TGI for CC(C)(C)c1nc2c(o1)C(=O)c1ccccc1C2=O please.
48.2 µM

Tell me measured TGI for N#CC(C(=O)/C(=N\Nc1nc(=S)[nH]n1N)C(C#N)c1ccc(Cl)cc1)c1ccc(Cl)cc1 (stereo not given) please.
> 100 µM

----------
Test system: HCT-15 colon
Test: NCI tumour cell line growth inhibition, 48 h
This section presents compounds with their documented TGI values.

CCN(CC)c1cc(/C=C/c2ccc(OC)c(OC)c2)nc2cc(F)c(F)cc12    > 100 µM
Clc1ccc(SCCSCCCCCCCCCCSCCSc2ccc(Cl)cc2)cc1    > 100 µM
CCCCCCCC/C=C/CCCCCCCC1=NCC[N+]1(CCO)CCO    11 µM

For the next question, use this compound.
Tell me measured TGI for CCSCC(N)C(=O)O (centres undefined) please.
> 100 µM

----------
System: RPMI-8226 leukemia
Assay: NCI tumour cell line growth inhibition, 48 h
Value Type: GI50

Past entries and their recorded results:
CCCCCCCC/C=C/CCCCCCCC1=NCC[N+]1(CCO)CCO    2.71 µM
O=C(OCc1ccccc1)N1CCN(/[N+]([O-])=N/Oc2ccc([N+](=O)[O-])cc2[N+](=O)[O-])CC1    2.23 µM
COc1ccc(C(=O)c2ccc(OC)c(OC)c2OC)cc1    2.59 µM

Tell me measured GI50 for CCN(CC)CCCNc1cccc2c(SCc3ccccc3)ccnc12 please.
1.24 µM

Tell me measured GI50 for Cc1cc2cc3cc(C)c(N(C)C)cc3nc2cc1N(C)C please.
4.16 µM

Tell me measured GI50 for Cc1cccc(Oc2nccc(-c3c(-c4ccc(F)cc4)ncn3C3CCNCC3)n2)c1C please.
7.52 µM

Tell me measured GI50 for CS(=O)CCCCCN=C=S (stereo not given) please.
3.79 µM

Tell me measured GI50 for N#Cc1c(-c2ccc(Cl)cc2)n(O)c2ccccc12 please.
1.6 µM

Tell me measured GI50 for C=C(C)[C@@H]1CC[C@]2(C)[C@H](C(=O)C=C3[C@@H]4C[C@](C)(C(=O)N5CCN(C)CC5)CC[C@]4(C)CC[C@]32C)[C@@]1(C)CCC#N please.
5.47 µM

Tell me measured GI50 for COc1ccc(Nn2c(SCC(=O)Nc3nc(-c4ccc(Cl)cc4)cs3)nc(C)c2C)cc1 please.
5.8 µM

----------
This section presents molecules with their documented TGI values.
Tested on: OVCAR-5 ovarian
Test: NCI tumour cell line growth inhibition, 48 h
Where a SMILES comes first, the peptide text is derived from it. [ ]: non-standard residue; d: D form. The star is where a group is joined. AllylGly = C=CC[CH](N)C(=O)O; Boc = CC(C)(C)OC(=O)*; OtBu = CC(C)(C)O*

Past entries and their recorded results:
N#Cc1c(-c2ccc([N+](=O)[O-])cc2)cc(-c2ccc(Nc3ccnc4cc(C(F)(F)F)ccc34)cc2)nc1N    > 73.8 µM
COc1cc(C2c3cc4c(cc3OC(Nc3ccc(C(=O)O)cc3)C2C)OCO4)cc(OC)c1OC (stereo not given)    > 100 µM
NCCCNc1nc2ccccc2c2c(=O)c3cc(C(F)(F)F)ccc3sc12    3.15 µM
C=CCC(NC(=O)C(CC(=O)OC(C)(C)C)NC(=O)OC(C)(C)C)C(=O)OC (stereo not given) (Boc-Asp(OtBu)-[AllylGly]-OMe; configuration not given here)    > 100 µM
CC(C)[C@@]12C[C@@H](OC(=O)[C@H]3CO3)[C@@](C)(O1)[C@@H]1CC[C@@H](C)[C@H]1[C@@H]2OC(=O)/C=C/c1ccccc1    68 µM
CC(C)(C)[Si](C)(C)OCC1OC(n2cnc3c(NC(=O)c4ccccc4)ncnc32)CC1O (stereo not given)    > 100 µM

Specify TGI for CCCCc1c2c(nc3c1CCCC3O)/C(=C/c1ccccc1)CCC2 (stereo not given) , system OVCAR-5 ovarian.
> 100 µM

----------
This section presents molecules with their documented TGI values.
System: MOLT-4 leukemia
Assay: NCI tumour cell line growth inhibition, 48 h
API: value field is a number in µM; no unit string.

Past entries and their recorded results:
Cc1cccc(Oc2nccc(-c3c(-c4ccc(F)cc4)ncn3C3CCNCC3)n2)c1C    17.6
COc1cc(NCCCCN=C(N)NC(N)=NC(C)C)c2ncccc2c1    16.6
CN(C)c1ccc(C(=C2C=CC(=[N+](C)C)C=C2)c2ccc(N(C)C)cc2)cc1 (tested in a mixture with another compound)    5.67
CCCc1cc(=O)oc2c3c(c4c(c12)OC(C)(C)C=C4)O[C@@H](C)[C@H](C)C3=O    26.8
CC(=O)c1c(C(F)(F)F)n([O-])c2ccc(Cl)cc2[n+]1=O    1.54
CN(C)c1ccc(N=Cc2c([O-])ccc3ccccc23)cc1.[C-]#[O+].[C-]#[O+].[Ir]    95

Tell me measured TGI for COc1cc2c(cc1OCCOS(C)(=O)=O)N=C[C@@H]1CCCN1C2=O please.
65.8

Tell me measured TGI for CC(=O)OCC1OC(n2c3c(c(-c4ccco4)c(C#N)c2=S)CCC3)C(OC(C)=O)C(OC(C)=O)C1OC(C)=O (stereo unspecified) please.
45.3

----------
System: HOP-62 NSCLC
Assay: NCI tumour cell line growth inhibition, 48 h
Value Type: GI50

CC(=O)c1c(C(F)(F)F)n([O-])c2ccc(Cl)cc2[n+]1=O    0.49 µM
CS(=O)CCCCCN=C=S (stereo not given)    12.5 µM
CCC(C)n1cc(C)c2c(C(=O)NCc3c(C)cc(C)[nH]c3=O)cc(Br)cc21 (stereo not given)    65.2 µM
CCCCCC(O)C1C(=O)OC(C)C(O)/C=C/C=C/C=C/C=C\C=C(\C)C(O)CC(O)CC(O)CC(O)CC(O)CC(O)CC1O (stereo not given)    > 100 µM

Specify GI50 for COC(=O)c1ccc2c(c1)nc(-c1cc3ccccc3[nH]c1=O)n2-c1cc(C(C)(C)C)[nH]n1 , system HOP-62 NSCLC.
0.996 µM

Data credit: PubChem BioAssay (NCI)
